system: P-Akt (S473); assay: Cell based AlphaLISA assay, inhibition of P-Akt (S473) (mTORC2 substrate phosphorylation) in MDA-MB-468 cells; conditions: Homo sapiens, MDA-MB-468, 4 h, AlphaLISA, two to four hours at 37° C., read-out: pIC50 for Inhibition of mTORC1 and mTORC2 Substrate Phosphorylation, p-AKT 1/2/3 -(S473) (converted)
MEASUREMENT TYPE: IC50

SMILES TEXT	ENDPOINT RESULT
CO[C@H]1C[C@@H]2CC[C@@H](C)[C@@](O)(O2)C(=O)C(=O)N2CCCC[C@H]2C(=O)O[C@H]([C@H](C)C[C@@H]2CC[C@H](n3cc(-c4cnc(N5CCN(c6ncc(C(=O)NCCOCCC(=O)NCCCCn7nc(-c8ccc9oc(N)nc9c8)c8c(N)ncnc87)cn6)CC5)nc4)nn3)[C@H](OC)C2)CC(=O)[C@H](C)/C=C(\C)[C@@H](O)[C@@H](OC)C(=O)[C@H](C)C[C@H](C)/C=C/C=C/C=C/1C	> 1000 nM
CO[C@H]1C[C@@H]2CC[C@@H](C)[C@@](O)(O2)C(=O)C(=O)N2CCCC[C@H]2C(=O)O[C@H]([C@H](C)C[C@@H]2CC[C@@H](O)[C@H](OC)C2)C[C@@H](OC)[C@H](C)/C=C(\C)[C@@H](O)[C@@H](OC)C(=NOCc2cn(CCOCCOCCOCCOCCOCCC(=O)NCCCCn3nc(-c4ccc5oc(N)nc5c4)c4c(N)ncnc43)nn2)[C@H](C)C[C@H](C)/C=C/C=C/C=C/1C	> 1000 nM
CO[C@H]1C[C@@H]2CC[C@@H](C)[C@@](O)(O2)C(=O)C(=O)N2CCCC[C@H]2C(=O)O[C@H]([C@H](C)C[C@@H]2CC[C@H](n3cc(CCCC(=O)NCCOCCOCCOCCOCCC(=O)NCCOCCOCCOCCOCCC(=O)NCCCCn4nc(-c5cc6cc(O)ccc6[nH]5)c5c(N)ncnc54)nn3)[C@H](OC)C2)CC(=O)[C@H](C)/C=C(\C)[C@@H](O)[C@@H](OC)C(=O)[C@H](C)C[C@H](C)/C=C/C=C/C=C/1C	31.6 to 1000 nM

====

System: P-Akt (S473)
Assay: Cell based AlphaLISA assay, inhibition of P-Akt (S473) (mTORC2 substrate phosphorylation) in MDA-MB-468 cells
Conditions: Homo sapiens, MDA-MB-468, 4 h, AlphaLISA, two to four hours at 37° C., read-out: pIC50 for Inhibition of mTORC1 and mTORC2 Substrate Phosphorylation, p-AKT 1/2/3 -(S473) (converted)
Method: Cell Based AlphaLISA Assays for Determining IC50 for Inhibition of P-Akt (S473), P-4E-BP1 (T37/46), and P-P70S6K (T389) in MDA-MB-468 Cells mTOR Kinase Cellular Assay To measure functional activity of mTORC1 and mTORC2 in cells the phosphorylation of 4EBP1 (Thr37/46) and P70S6K (Thr389), and AKT1/2/3 (Ser473) was monitored using AlphaLisa SureFire Ultra Kits (Perkin Elmer). […] Incubations were terminated by removal of the assay buffer and addition of lysis buffer provided with the assay kit. […]
Below is a list of entries, each paired with its recorded IC50 value.

COMPOUND	IC50
CO[C@H]1C[C@@H]2CC[C@@H](C)[C@@](O)(O2)C(=O)C(=O)N2CCCC[C@H]2C(=O)O[C@H]([C@H](C)C[C@@H]2CC[C@H](n3cc(CCCC(=O)NCCOCCOCCOCCC(=O)NCCOCCOCCOCCOCCC(=O)NCCCCn4nc(-c5ccc6oc(N)nc6c5)c5c(N)ncnc54)nn3)[C@H](OC)C2)CC(=O)[C@H](C)/C=C(\C)[C@@H](O)[C@@H](OC)C(=O)[C@H](C)C[C@H](C)/C=C/C=C/C=C/1C	31.6 to 1000 nM
CO[C@H]1C[C@@H]2CC[C@@H](C)[C@@](O)(O2)C(=O)C(=O)N2CCCC[C@H]2C(=O)O[C@H]([C@H](C)C[C@@H]2CC[C@@H](OCc3cccc(-c4cnc(N5CCN(S(=O)(=O)CCc6cn(CCOCCOCCOCCOCCC(=O)NCCCCn7nc(-c8ccc9oc(N)nc9c8)c8c(N)ncnc87)nn6)CC5)nc4)c3)[C@H](OC)C2)CC(=O)[C@H](C)/C=C(\C)[C@@H](O)[C@@H](OC)C(=O)[C@H](C)C[C@H](C)/C=C/C=C/C=C/1C	3.16 to 31.6 nM
CO[C@H]1C[C@@H]2CC[C@@H](C)[C@@](O)(O2)C(=O)C(=O)N2CCCC[C@H]2C(=O)O[C@H]([C@H](C)C[C@@H]2CC[C@@H](O)[C@H](OC)C2)C[C@@H](OC)[C@H](C)/C=C(\C)[C@@H](O)[C@@H](OC)/C(=N/OCc2cn(CCOCCOCCOCCOCCOCCOCCC(=O)NCCCCn3nc(-c4ccc5oc(N)nc5c4)c4c(N)ncnc43)nn2)[C@H](C)C[C@H](C)/C=C/C=C/C=C/1C	31.6 to 1000 nM
CO[C@H]1C[C@@H]2CC[C@@H](C)[C@@](O)(O2)C(=O)C(=O)N2CCCC[C@H]2C(=O)O[C@H]([C@H](C)C[C@@H]2CC[C@H](n3cc(COCCOCCOCCOCCC(=O)OCCOCCOCCOCCOCCC(=O)NCCCCn4nc(-c5ccc6oc(N)nc6c5)c5c(N)ncnc54)nn3)[C@H](OC)C2)CC(=O)C(C)/C=C(\C)[C@@H](O)[C@@H](OC)C(=O)[C@H](C)C[C@H](C)/C=C/C=C/C=C/1C (stereo in doubt)	31.6 to 1000 nM
CO[C@H]1C[C@@H]2CC[C@@H](C)[C@@](O)(O2)C(=O)C(=O)N2CCCC[C@H]2C(=O)O[C@H]([C@H](C)C[C@@H]2CC[C@H](n3cc(-c4cnc(N5CCN(c6ncc(C(=O)NCCOCCOCCOCCOCCC(=O)NCCCCn7nc(-c8cc9cc(O)ccc9[nH]8)c8c(N)ncnc87)cn6)CC5)nc4)nn3)[C@H](OC)C2)CC(=O)[C@H](C)/C=C(\C)[C@@H](O)[C@@H](OC)C(=O)[C@H](C)C[C@H](C)/C=C/C=C/C=C/1C	> 1000 nM
COC(=O)NC1C[C@@H]2CC[C@@H](C)[C@@](O)(O2)C(=O)C(=O)N2CCCC[C@H]2C(=O)O[C@H]([C@H](C)C[C@@H]2CC[C@@H](OCCCCc3cn(CCOCCOCCOCCOCCOCCOCCOCCOCCC(=O)NCCCCn4nc(-c5ccc6oc(N)nc6c5)c5c(N)ncnc54)nn3)[C@H](OC)C2)CC(=O)[C@H](C)/C=C(\C)[C@@H](O)[C@@H](OC)C(=O)[C@H](C)C[C@H](C)/C=C/C=C/C=C/1C (stereo partly drawn)	31.6 to 1000 nM
CO[C@H]1C[C@@H]2CC[C@@H](C)[C@@](O)(O2)C(=O)C(=O)N2CCCC[C@H]2C(=O)O[C@H]([C@H](C)C[C@@H]2CC[C@@H](OCCC(C)(C)Cc3cn(CCOCCOCCOCCOCCOCCOCCOCCOCCC(=O)NCCCCn4nc(-c5ccc6oc(N)nc6c5)c5c(N)ncnc54)nn3)[C@H](OC)C2)CC(=O)[C@H](C)/C=C(\C)[C@@H](O)[C@@H](OC)C(=O)[C@H](C)C[C@H](C)/C=C/C=C/C=C/1C	< 3.16 nM
CO[C@H]1C[C@@H]2CC[C@@H](C)[C@@](O)(O2)C(=O)C(=O)N2CCCC[C@H]2C(=O)O[C@H]([C@H](C)C[C@@H]2CC[C@H](n3cc(CCCC(=O)NCCOCCOCCOCCC(=O)NCCOCCOCCC(=O)NCCCCn4nc(-c5cc6cc(O)ccc6[nH]5)c5c(N)ncnc54)nn3)[C@H](OC)C2)CC(=O)[C@H](C)/C=C(\C)[C@@H](O)[C@@H](OC)C(=O)[C@H](C)C[C@H](C)/C=C/C=C/C=C/1C	> 1000 nM
CO[C@H]1C[C@@H]2CC[C@@H](C)[C@@](O)(O2)C(=O)C(=O)N2CCCC[C@H]2C(=O)O[C@H]([C@H](C)C[C@@H]2CC[C@@H](OCCCCc3cn(CCOCCOCCOCCOCCOCCOCCOCCOCCC(=O)NCCCCn4nc(-c5ccc6oc(N)nc6c5)c5c(N)ncnc54)nn3)[C@H](OC)C2)CC(=O)[C@H](C)/C=C(\C)[C@@H](O)[C@@H](OC)C(=O)[C@H](C)C[C@H](C)/C=C/C=C/C=C/1C	< 3.16 nM

====

Below is a list of entries, each paired with its recorded IC50 value.
tested on: P-Akt (S473); experiment: Cell based AlphaLISA assay, inhibition of P-Akt (S473) (mTORC2 substrate phosphorylation) in MDA-MB-468 cells; conditions: Homo sapiens, MDA-MB-468, 4 h, AlphaLISA, two to four hours at 37° C., read-out: pIC50 for Inhibition of mTORC1 and mTORC2 Substrate Phosphorylation, p-AKT 1/2/3 -(S473) (converted)
MEASUREMENT TYPE: IC50

MOLECULE	ENDPOINT RESULT
CO[C@H]1C[C@@H]2CC[C@@H](C)[C@@](O)(O2)C(=O)C(=O)N2CCCC[C@H]2C(=O)O[C@H]([C@H](C)C[C@@H]2CC[C@H](n3cc(CCCC(=O)NCCOCCOCCOCCC(=O)NCCOCCOCCOCCC(=O)NCCCCn4nc(-c5ccc6oc(N)nc6c5)c5c(N)ncnc54)nn3)[C@H](OC)C2)CC(=O)[C@H](C)/C=C(\C)[C@@H](O)[C@@H](OC)C(=O)[C@H](C)C[C@H](C)/C=C/C=C/C=C/1C	3.16 to 31.6 nM
CO[C@H]1C[C@@H]2CC[C@@H](C)[C@@](O)(O2)C(=O)C(=O)N2CCCC[C@H]2C(=O)O[C@H]([C@H](C)C[C@@H]2CC[C@@H](OCCCCc3cn(CCOCCOCCOCCOCCOCCOCCOCCOCCC(=O)N4CCC(Cn5nc(-c6ccc7oc(N)nc7c6)c6c(N)ncnc65)C4)nn3)[C@H](OC)C2)CC(=O)[C@H](C)/C=C(\C)[C@@H](O)[C@@H](OC)C(=O)[C@H](C)C[C@H](C)/C=C/C=C/C=C/1C (stereo partly drawn)	< 3.16 nM
CO[C@H]1C[C@@H]2CC[C@@H](C)[C@@](O)(O2)C(=O)C(=O)N2CCCC[C@H]2C(=O)O[C@H]([C@H](C)C[C@@H]2CC[C@H](n3cc(COC(=O)NCCOCCOCCOCCOCCC(=O)NCc4cnc(N5CCN(c6ncc(C(=O)NCCCCn7nc(-c8ccc9oc(N)nc9c8)c8c(N)ncnc87)cn6)CC5)nc4)nn3)[C@H](OC)C2)CC(=O)[C@H](C)/C=C(\C)[C@@H](O)[C@@H](OC)C(=O)[C@H](C)C[C@H](C)/C=C/C=C/C=C/1C	3.16 to 31.6 nM
